# System: M14 melanoma
# experiment-summary: NCI tumour cell line growth inhibition, 48 h
observation-type: TGI (µM)
Respond numerically; units are µM and should not be typed.

Req: Quick one: TGI of Cc1ccc(-c2cc(-c3ccc(Cl)cc3)nc(/N=C3\C(=O)N(CN4CCCCC4)c4ccc(Cl)cc43)n2)cc1 ?
Resp: 46.6

Req: Quick one: TGI of O=c1oc(-c2ccc(O)c(O)c2)cc2cc(O)cc(O)c12 ?
Resp: 93.9

Req: Quick one: TGI of O=C(Nc1cccc2nsnc12)c1cc2c(cc1Cl)Sc1nccn1S2(=O)=O ?
Resp: 42.5

Req: Quick one: TGI of COc1cc[nH]c1/C=C1\C(=O)Nc2ccc(F)c(C#CC3(O)CCOCC3)c21 ?
Resp: 4.28

Req: Quick one: TGI of CCOC(=O)c1c2c(n(C)c1-c1ccccc1)C(=O)C(C)=CC2=O ?
Resp: 13.5

Req: Quick one: TGI of Cc1ccc2ccccc2c1CC1S(=O)(=O)OCCOS1(=O)=O ?
Resp: 28.7

Req: Quick one: TGI of O=c1c(Cc2ccc(Cl)cc2)nnc2sc(-c3ccc([N+](=O)[O-])cc3)nn12 ?
Resp: 39.2

Req: Quick one: TGI of CCCCCCCCCCCCCCCC[N+]1(CC)CCCC1 ?
Resp: 1.72

Req: Quick one: TGI of Cc1nn(-c2ccccc2)c2c1C1C(=C(c3ccc(Cl)cc3)N2)C(=O)Nc2ccccc21 (configuration not stated) ?
Resp: 15.2
